- assay target: T1, IL-18R on HEK-Blue IL18R reporter cells (UniProt Q13478 19-541; O95256 20-599)
- T1 sequence (looked up) 1: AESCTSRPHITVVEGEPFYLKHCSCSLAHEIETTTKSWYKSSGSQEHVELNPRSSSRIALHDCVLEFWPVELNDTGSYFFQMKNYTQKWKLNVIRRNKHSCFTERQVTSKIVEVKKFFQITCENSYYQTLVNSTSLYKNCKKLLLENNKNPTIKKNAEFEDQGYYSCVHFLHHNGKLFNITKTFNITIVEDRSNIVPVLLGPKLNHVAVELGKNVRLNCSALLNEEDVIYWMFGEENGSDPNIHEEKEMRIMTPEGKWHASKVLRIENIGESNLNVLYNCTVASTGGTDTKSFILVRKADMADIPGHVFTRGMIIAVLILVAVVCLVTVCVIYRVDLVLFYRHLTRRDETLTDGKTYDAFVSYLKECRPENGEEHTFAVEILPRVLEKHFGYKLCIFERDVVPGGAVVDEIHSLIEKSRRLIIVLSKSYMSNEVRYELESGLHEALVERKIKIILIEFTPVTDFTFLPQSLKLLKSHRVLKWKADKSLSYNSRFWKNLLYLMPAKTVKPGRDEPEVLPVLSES
- T1 sequence (looked up) 2: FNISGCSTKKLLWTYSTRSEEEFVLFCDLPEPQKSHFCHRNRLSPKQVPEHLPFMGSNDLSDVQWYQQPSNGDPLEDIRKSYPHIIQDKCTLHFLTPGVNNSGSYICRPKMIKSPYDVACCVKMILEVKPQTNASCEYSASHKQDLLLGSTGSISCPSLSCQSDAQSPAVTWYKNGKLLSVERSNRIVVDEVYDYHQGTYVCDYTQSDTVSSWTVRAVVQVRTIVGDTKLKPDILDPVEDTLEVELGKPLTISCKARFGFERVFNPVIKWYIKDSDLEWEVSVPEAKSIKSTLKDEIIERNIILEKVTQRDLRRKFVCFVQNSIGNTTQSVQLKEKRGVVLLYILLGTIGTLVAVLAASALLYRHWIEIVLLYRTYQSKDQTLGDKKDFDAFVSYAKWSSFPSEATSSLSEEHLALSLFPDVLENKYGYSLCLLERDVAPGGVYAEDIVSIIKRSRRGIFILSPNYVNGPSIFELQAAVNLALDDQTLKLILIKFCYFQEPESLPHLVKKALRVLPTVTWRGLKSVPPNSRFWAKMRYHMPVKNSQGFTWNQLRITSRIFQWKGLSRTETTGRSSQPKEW
- assay summary: cell-based or functional assay
reported metric: EC50, HEK-Blue IL18R SEAP reporter (pM)
Give your result in pM as a bare value.

binder	reported metric	quantity unit	observed value
IL-18 polypeptide C168 (ligand) YFGKLESKLSIIRNLNDQVLFIDQGNRPLFEDMTDSDARDNAPRTIFIISMYKDSQPRGMAVTISVKCEKISTLSAENKIISFKEMNPPDNIKDTKSDIIFFQRKVPGHDNKMQFESSSYEGYFLAAEKERDLFKLILKKEDELGDRSIMFTVQNED	EC50, HEK-Blue IL18R SEAP reporter	pM	7.73
IL-18 polypeptide C179 (ligand) YFGKLKSELSIIRNLNDQVLFIDQGNRPLFEDMTDSDARDNAPRTIFIISMYADSQPRGMAVAISVKCEKISTLSAENKIISFKEMNPPDNIKDTKSDIIFFRRSVPGHDNKMQFESSSYEGYFLAAEKERDLFKLILKKEDELGDRSIMFTVQNED	EC50, HEK-Blue IL18R SEAP reporter	pM	0.4

Here's the next entry for you.
Task: Entry IL-18 polypeptide C176 (ligand) YFGKLKSKLSIIRNLNDQVLFIDQGNRPLFEDMTDSDARDNAPRTIFIMSMYADSQPRGMAVAISVKCEKISTLSAENKIISFKEMNPPDNIKDTKSDIIFFQRSVPGHDNKMQFESSSYEGYFLAAEKERDLFKLILKKEDELGDRSIMFTVQNED needs its EC50, HEK-Blue IL18R SEAP reporter filled in; supply it.
Output: 0.07
